- target: Amine oxidase [flavin-containing] A (Homo sapiens, UniProt P21397); note: assay procedure not described here
- Sequence (P21397 whole entry): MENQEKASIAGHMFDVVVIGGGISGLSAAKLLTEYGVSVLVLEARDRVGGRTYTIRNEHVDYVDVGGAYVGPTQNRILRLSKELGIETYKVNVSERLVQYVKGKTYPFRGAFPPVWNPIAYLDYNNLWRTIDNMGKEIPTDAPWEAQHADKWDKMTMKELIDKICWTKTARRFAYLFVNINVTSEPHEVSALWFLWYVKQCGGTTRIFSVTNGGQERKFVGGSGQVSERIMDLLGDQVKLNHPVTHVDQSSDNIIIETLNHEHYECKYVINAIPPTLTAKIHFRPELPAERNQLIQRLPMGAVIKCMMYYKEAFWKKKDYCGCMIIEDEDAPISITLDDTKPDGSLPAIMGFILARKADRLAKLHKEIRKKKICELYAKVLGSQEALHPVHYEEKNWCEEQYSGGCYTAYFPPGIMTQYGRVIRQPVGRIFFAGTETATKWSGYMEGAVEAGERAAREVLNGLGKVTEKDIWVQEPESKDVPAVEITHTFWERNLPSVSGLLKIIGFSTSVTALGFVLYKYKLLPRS
- Assay type: functional
property-measured: AC50

Answered examples (8):
| molecule | target | AC50 |
| --- | --- | --- |
| CN1C(=O)N(C)C2C1N(C)C(=O)N2C (stereo not drawn) | Amine oxidase [flavin-containing] A (Homo sapiens, UniProt P21397) | > 30 µM |
| NC(=O)c1ncn([C@@H]2O[C@H](CO)[C@@H](O)[C@H]2O)c1O | Amine oxidase [flavin-containing] A (Homo sapiens, UniProt P21397) | > 30 µM |
| Cc1cc2c(OCC(CNC(C)(C)C)OC(=O)c3ccccc3)cccc2[nH]1 (stereo not drawn) | Amine oxidase [flavin-containing] A (Homo sapiens, UniProt P21397) | > 30 µM |
| CCNC(C)Cc1cccc(C(F)(F)F)c1 (stereo not drawn) | Amine oxidase [flavin-containing] A (Homo sapiens, UniProt P21397) | > 10 µM |
| Cc1cccc(C)c1NC(=O)C1CCCCN1C (stereo not drawn) [MEPIVACAINE] | Amine oxidase [flavin-containing] A (Homo sapiens, UniProt P21397) | > 30 µM |
| CCN(CC)CCNC(=O)c1cc(Cl)c(N)cc1OC [METOCLOPRAMIDE] | Amine oxidase [flavin-containing] A (Homo sapiens, UniProt P21397) | > 10 µM |
| CN(C)[C@@H]1C(O)=C(C(N)=O)C(=O)[C@@]2(O)C(O)=C3C(=O)c4c(O)ccc(Cl)c4[C@@H](O)[C@H]3C[C@@H]12 | Amine oxidase [flavin-containing] A (Homo sapiens, UniProt P21397) | > 10 µM |
| O=C(O)c1cc(-c2ccc(F)cc2F)ccc1O | Amine oxidase [flavin-containing] A (Homo sapiens, UniProt P21397) | > 10 µM |

Please supply the value of reported AC50 for the item CC(C)NCC1CCc2cc(CO)c([N+](=O)[O-])cc2N1 (stereo not drawn)
> 10 µM

Return reported AC50. Input molecule: NC(CO)C(=O)NNCc1ccc(O)c(O)c1O (stereo not drawn) [BENSERAZIDE]
> 10 µM

---

# Melanocortin receptor 4 (Homo sapiens): AC50 values follow; note: assay procedure not described here
# Sequence (P32245 whole entry): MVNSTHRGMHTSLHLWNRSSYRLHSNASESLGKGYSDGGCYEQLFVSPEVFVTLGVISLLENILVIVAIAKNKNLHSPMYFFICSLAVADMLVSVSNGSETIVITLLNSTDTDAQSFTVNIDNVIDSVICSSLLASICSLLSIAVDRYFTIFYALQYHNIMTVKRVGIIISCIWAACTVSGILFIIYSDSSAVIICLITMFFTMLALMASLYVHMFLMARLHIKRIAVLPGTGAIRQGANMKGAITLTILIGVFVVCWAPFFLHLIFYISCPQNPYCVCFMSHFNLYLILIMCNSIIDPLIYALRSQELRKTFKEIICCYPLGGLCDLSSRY

Solved entries (count: 5):
| compound | meas-value |
| --- | --- |
| Cc1c(C(=O)Nc2ccc(N3C[C@@H](C)O[C@@H](C)C3)nc2)cccc1-c1ccc(OC(F)(F)F)cc1 | > 30 µM |
| C[C@H]1C[C@@H]2[C@H]([C@@H](O)C[C@@]3(C)[C@H]2CC[C@]3(O)C(=O)CO)[C@@]2(C)C=CC(=O)C=C12 | > 10 µM |
| CCC[C@@H]1C[C@@H](C(=O)N[C@@H]([C@H]2O[C@H](SC)[C@H](O)[C@@H](O)[C@H]2O)[C@H](C)Cl)N(C)C1 | > 30 µM |
| CCC1(C2=CCCCCC2)C(=O)NC(=O)NC1=O | > 10 µM |
| CC(=O)N[C@H]1[C@H]([C@H](O)[C@H](O)CO)OC(C(=O)O)=C[C@@H]1N=C(N)N | > 30 µM |

Tell me AC50 reported for CC(C)NCC1CCc2cc(CO)c([N+](=O)[O-])cc2N1 (configuration not stated)
> 10 µM

Check the records and state AC50 for `CN(C)CCCN1c2ccccc2Sc2ccccc21`
> 30 µM

Identify measured AC50 corresponding to CC(C)C(=O)OCC(=O)[C@@]12O[C@H](C3CCCCC3)O[C@@H]1C[C@H]1[C@@H]3CCC4=CC(=O)C=C[C@]4(C)[C@H]3[C@@H](O)C[C@@]12C [CICLESONIDE]
> 10 µM

Return AC50 (reported value) for this compound: O=C1CCC(N2C(=O)c3ccccc3C2=O)C(=O)N1 (configuration not stated) [THALIDOMIDE]
> 30 µM

Quickly give me recorded AC50 for CC(Cc1ccccc1)NCCC(c1ccccc1)c1ccccc1 (configuration not stated)
6.4 µM

Entry CN(CCOc1ccc(NS(C)(=O)=O)cc1)CCc1ccc(NS(C)(=O)=O)cc1 [DOFETILIDE] needs its AC50 filled in; supply it.
> 30 µM
